Target: proteasome in Molt-4 cells (human leukemia) (Homo sapiens, UniProt P20618+P28074)
Sequence (P28074 60-263): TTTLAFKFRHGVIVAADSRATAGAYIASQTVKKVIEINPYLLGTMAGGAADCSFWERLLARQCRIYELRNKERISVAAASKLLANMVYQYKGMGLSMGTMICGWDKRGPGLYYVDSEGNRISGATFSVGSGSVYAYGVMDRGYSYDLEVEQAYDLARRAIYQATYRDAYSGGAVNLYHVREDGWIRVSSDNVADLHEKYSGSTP
Sequence (P20618 29-241): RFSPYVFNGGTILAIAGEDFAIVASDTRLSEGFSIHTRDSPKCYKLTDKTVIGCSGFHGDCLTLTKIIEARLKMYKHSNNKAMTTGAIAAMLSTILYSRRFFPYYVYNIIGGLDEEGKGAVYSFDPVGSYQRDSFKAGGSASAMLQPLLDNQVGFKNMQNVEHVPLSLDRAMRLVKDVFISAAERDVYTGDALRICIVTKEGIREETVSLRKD
Assay type: cell-based
Conditions: assay of Example E, inhibition of MOLT4; read-out: MOLT4 (EC50)
pEC50: −log10 of the molar value.
METRIC: pEC50

Before answering, review these 3 worked examples.
CCCCc1ccc(C(=O)N[C@H](CNC(=O)c2ccc(C)cc2)C(=O)N[C@@H](CC(C)C)B(O)O)cc1    > 6.70
CSCC(=O)N[C@@H](CCCNC(=N)N[N+](=O)[O-])C(=O)N[C@@H](CC(C)C)B(O)O    < 5.00
CCCCCCCCCC(=O)N[C@@H](CCCNC(N)=O)C(=O)N[C@@H](CC(C)C)B(O)O    5.70 to 6.70

Which pEC50 is reported for this molecule? Cc1ccc(C(=O)N[C@@H](CCCNC(=N)N[N+](=O)[O-])C(=O)N[C@@H](CC(C)C)B(O)O)s1
< 5.00

// query pEC50 value for entry CCCCOc1ccc(S(=O)(=O)N[C@@H](CCCNC(=N)N[N+](=O)[O-])C(=O)N[C@@H](CC(C)C)B2O[C@@H]3C[C@@H]4C[C@@H](C4(C)C)[C@]3(C)O2)cc1
> 6.70

So what's the measured pEC50 for this one? CC(C)C[C@H](NC(=O)[C@H](CCCNC(=N)N[N+](=O)[O-])NC(=O)Cc1ccccc1Cl)B1O[C@@H]2C[C@@H]3C[C@@H](C3(C)C)[C@]2(C)O1
> 6.70

Would you mind telling me what pEC50 value was observed for CCCCCC(=O)NC[C@H](NC(=O)c1ccc(CCCC)cc1)C(=O)N[C@@H](CC(C)C)B1O[C@@H]2C[C@@H]3C[C@@H](C3(C)C)[C@]2(C)O1 ?
> 6.70

Give its pEC50 value. Item: CCCCCCCOc1ccc(NC(=O)N[C@@H](CCCNC(=N)N[N+](=O)[O-])C(=O)N[C@@H](CC(C)C)B(O)O)cc1
5.70 to 6.70

Look at this molecule and give its reported pEC50. Cc1ccc(CSCCC(=O)N[C@@H](CCCNC(=N)N[N+](=O)[O-])C(=O)N[C@@H](CC(C)C)B(O)O)cc1
5.00 to 5.70

Field request: pEC50 | item: CC(C)C[C@H](NC(=O)[C@H](CCCNC(=N)N[N+](=O)[O-])NC(=O)CCc1c[nH]c2ccccc12)B1O[C@@H]2C[C@@H]3C[C@@H](C3(C)C)[C@]2(C)O1
5.70 to 6.70

For CCCCc1ccc(C(=O)N[C@H](C(=O)N[C@@H](CC(C)C)B(O)O)[C@@H](C)O)cc1 , what is its reported pEC50?
> 6.70

Recorded pEC50 of CCCCc1ccc(C(=O)N[C@@H](CCCNC(=N)N[N+](=O)[O-])C(=O)N[C@@H](CC(C)C)B(O)O)cc1 , please.
5.70 to 6.70

For the molecule shown here, CCN(CC)c1ccc(C(=O)N[C@@H](CCCNC(=N)N[N+](=O)[O-])C(=O)N[C@@H](CC(C)C)B(O)O)cc1 , give the reported pEC50.
< 5.00
